# System: MCF7 breast
# PROCEDURE SUMMARY: NCI-60 one-dose screen, 48 h (100 = growth as untreated, 0 = no growth, -100 = all killed)
# CONDITION: 10 µM
# Protocol: Growth inhibition of the MCF7 human tumor cell line is measured as a screen for anti-cancer activity. Cells are grown in 96 well plates and exposed to the test compound for 48 hours. Compounds are tested at a single concentration, which is 10^-5 M for most compounds. The reported endpoint is percent growth (GI% or GIPRCNT), where numbers from 0 - 100% represent growth inhibition, and numbers from -100% - 0 represent cell death. For example, a value of 40 represents 60% growth inhibition. […]
The panel holds about 83,000 compounds, 20% with a hit somewhere; the sample as a whole holds those more often. Active and inactive are the calls of the source. The calls were made as follows: active = growth percent below 10; inactive = the rest.
RESULT TYPE: growth

Some molecules with known growth results, for comparison:
MOLECULE: COc1cc(Cl)cc(-c2nn(-c3cccc(NC(=O)c4ccc(Cl)c(Cl)c4)c3)cc2-c2ccncc2)c1
MEASUREMENT TARGET: MCF7 breast
RESULT: 57.7% (inactive)
//
MOLECULE: CCCC(F)C(=O)O (stereo not drawn)
MEASUREMENT TARGET: MCF7 breast
RESULT: 97.8% (inactive)
//
MOLECULE: S=C1SCC(c2ccccc2)S1 (stereo not drawn)
MEASUREMENT TARGET: MCF7 breast
RESULT: 99.4% (inactive)

// molecule COc1cccc(-c2cc(-c3cccc(NS(C)(=O)=O)c3)nc(N)c2C#N)c1O , assay MCF7 breast, growth value: 19.1% (inactive)

// molecule CC(C)(C#N)Nc1ccccc1 , assay MCF7 breast, growth value: 93.4% (inactive)

// molecule COc1ccc2c(c1)-c1c(c3cc(OC)ccc3n(CCN(C)C)c1=O)C2=O , assay MCF7 breast, growth value: -0.273% (active)

// molecule O=S(=O)(Nc1ccccn1)c1ccc(N=Nc2ccc(O)c3ncccc23)cc1 , assay MCF7 breast, growth value: 5.03% (active)

// molecule COc1cc(-c2cc(C(=O)N3CCN(C(=O)c4ccccc4NCc4ccco4)CC3)nc3cc(-c4ccccc4)nn23)cc(OC)c1OC , assay MCF7 breast, growth value: 16.3% (inactive)

###

Listing: growth of selected compounds
# Test system: SF-539 CNS
# PROCEDURE SUMMARY: NCI-60 one-dose screen, 48 h (100 = growth as untreated, 0 = no growth, -100 = all killed)
# CONDITION: 10 µM
Compounds without any hit were thinned out: in the full panel of roughly 83,000, 20% have a hit.
Give the value in % but do not write % after it.

COMPOUND: Nc1ncn([C@@H]2O[C@H](CO)[C@@H](O)[C@H]2O)c(=O)n1
READOUT UNIT: %
growth: 3.27
//
COMPOUND: N#CCCN1C/C(=C/c2ccccc2)C(=O)/C(=C/c2ccccc2)C1
READOUT UNIT: %
growth: 76.1
//
COMPOUND: O=C(Nc1ccc(Cl)c([N+](=O)[O-])c1)Nc1nc2ccccc2s1
READOUT UNIT: %
growth: 83.6
//
COMPOUND: Cc1cc(C)c(NC(=O)c2sc3nc4c(cc3c2N)C(=O)CCC4)c(C)c1
READOUT UNIT: %
growth: -6.5
//
COMPOUND: CC/C(=C(/c1ccc(OCCN(C)C)cc1)c1ccc(OC(=O)CCC(=O)c2c(C)[nH]c(/C=C3\N=C(c4ccc[nH]4)C=C3OC)c2C)cc1)c1ccccc1
READOUT UNIT: %
growth: 49.7
//
COMPOUND: O=C(CC(c1ccccc1)N1CCOCC1)c1ccccc1 (stereo not drawn)
READOUT UNIT: %
growth: 97.5
//
COMPOUND: O=C1C(=O)c2ccccc2C(O)=C1CCCc1ccc(C2CCCCCC2)cc1
READOUT UNIT: %
growth: 37.9
//
COMPOUND: COc1cc(C(=C2O[C@@H]([C@H]3COC(C)(C)O3)[C@H]3OC(C)(C)O[C@@H]23)c2cc(OC)c(OC)c(OC)c2)cc(OC)c1OC
READOUT UNIT: %
growth: 111
//
COMPOUND: COc1ccc2nc3ccccc3c(NCCNCC(C)O)c2c1 (stereo not drawn)
READOUT UNIT: %
growth: 6.66
//
COMPOUND: Nc1nc(N=Nc2ccc(O)cc2)cc(=O)[nH]1
READOUT UNIT: %
growth: 96.6

Looking up COc1ccc(-c2nn(-c3cccc(NC(=O)c4ccc(Cl)c(Cl)c4)c3)cc2-c2ccncc2)cc1Cl , I see its growth listed as 72.2

Looking up CCN(CC)CCCC(C)Nc1ccc2ccc(Cl)cc2n1 (stereo not drawn) , I see its growth listed as 101

Looking up O=C(N/N=C/c1ccccc1O)C(O)(c1ccccc1)c1ccccc1 , I see its growth listed as 60.6

Looking up ClCC#CCSc1ncnc2c1ncn2CC#CCCl , I see its growth listed as 26

Looking up CCCCCCNC(=O)Oc1ccc(/C(=C(/CC)Cc2ccccc2)c2ccc(OCCN3CCCCC3)cc2)cc1 , I see its growth listed as 91.9

Looking up NC(=O)c1ccc(-c2cccc3c(=O)nc(N4CCOCC4)oc23)cc1 , I see its growth listed as 102

Looking up O=C1/C(=C\c2ccc(Br)cc2)CN(C(=O)c2ccccc2F)C/C1=C\c1ccc(Br)cc1 , I see its growth listed as 3.38

Looking up O=C(Nc1cccc(-n2cc(-c3ccncc3)c(-c3cc(O)cc(Cl)c3)n2)c1)c1cc(C(F)(F)F)cc(C(F)(F)F)c1 , I see its growth listed as 75.5

Looking up CCOC(=O)C1(CC(C)C)CCOC1=O (stereo not drawn) , I see its growth listed as 97.7

Data origin, for the record: PubChem BioAssay (NCI)
